- test-target: hROMK (hKir1.1) (Homo sapiens, UniProt P48048)
- assay-method-text: Thallium Flux Assay (ROMK channel functional thallium flux assay)
- condition-parameters: HEK293 cells stably expressing hROMK (hKir1.1); FluxOR thallium flux, FLIPR-Tetra, 30 min compound incubation; read-out: ROMK TI IC50
outcome-measure: pIC50
pIC50 field: float, defined as -log10 of concentration (mol/L).

Known pIC50 results, listed for orientation:
Look up pIC50 of Cc1c([C@@H](O)CN2CCC3(CC2)CCN(c2ncccn2)CC3)ccc2c1COC2=O [Example 136] and report it.
6.48

Look up pIC50 of Cc1c([C@@H](O)CN2CCC3(CC2)CC(=O)N(c2ccncc2)C3)ccc2c1COC2=O [Example 79] and report it.
7.25

Look up pIC50 of Cc1c([C@@H](O)CN2CCC3(CC2)CCN(c2cc(C)c(=O)n(C)n2)C3=O)ccc2c1COC2=O [Example 52] and report it.
6.37

Next:
Look up pIC50 of Cc1c([C@@H](O)CN2CCC3(CC2)CCN(c2ccc(Cl)nn2)CC3)ccc2c1COC2=O [Example 123] and report it.
8.07

====

- test-target: hROMK (hKir1.1) (Homo sapiens)
- assay-method-text: Thallium Flux Assay (ROMK channel functional thallium flux assay)
- condition-parameters: HEK293 cells stably expressing hROMK (hKir1.1); FluxOR thallium flux, FLIPR-Tetra, 30 min compound incubation; read-out: ROMK TI IC50
pIC50: −log10 of the molar value.
Label scheme for pIC50: lower than 7 is F, 7 and above is T.

Some solved entries appear below for comparison.
Reported pIC50 reaches at least 7 for COc1ccncc1N1CCC2(CCN(C[C@H](O)c3ccc4c(c3C)COC4=O)CC2)C1=O [Example 77] ?
F

Reported pIC50 reaches at least 7 for COc1cc(N2CCC3(CCN(C[C@H](O)c4ccc5c(c4C)COC5=O)CC3)C2=O)ccn1 [Example 74] ?
T

Reported pIC50 reaches at least 7 for Cc1c([C@@H](O)CN2CCC3(CC2)CCN(c2ccccn2)CC3)ccc2c1COC2=O [Example 112] ?
F

Reported pIC50 reaches at least 7 for Cc1c([C@@H](O)CN2CCC3(CC2)CCN(c2cccnn2)CC3)ccc2c1COC2=O [Example 139] ?
F

Reported pIC50 reaches at least 7 for Cc1c([C@@H](O)CN2CCC3(CC2)CCN(c2cnsc2)C3=O)ccc2c1COC2=O [Example 72] ?
T

Next:
Reported pIC50 reaches at least 7 for Cc1cc(N2CCCC3(CCN(C[C@H](O)c4ccc5c(c4C)COC5=O)CC3)C2=O)sn1 [Example 81] ?
F

Reported pIC50 reaches at least 7 for Cc1c([C@@H](O)CN2CCC3(CC2)OCCN(c2ccncc2)C3=O)ccc2c1COC2=O [Example 26] ?
F

Reported pIC50 reaches at least 7 for Cc1c([C@@H](O)[C@H](C)N2CCC3(CCN(c4ccc(=O)n(C)n4)C3=O)CC2)ccc2c1COC2=O [Example 107] ?
T

Reported pIC50 reaches at least 7 for COc1ncc(N2CCC3(CCN(C[C@H](O)c4ccc5c(c4C)COC5=O)CC3)C2)cn1 [Example 15] ?
F

Reported pIC50 reaches at least 7 for Cc1c([C@@H](O)CN2CCC3(CC2)CCN(c2cnn(C)c(=O)c2)C3=O)ccc2c1COC2=O [Example 49] ?
F

Reported pIC50 reaches at least 7 for Cc1c([C@@H](O)CN2CCC3(CC2)CCN(c2cnc(C(F)(F)F)cn2)CC3)ccc2c1COC2=O [Example 125] ?
F

Reported pIC50 reaches at least 7 for Cc1c([C@@H](O)CN2CCC3(CC2)CCN(c2sncc2Cl)C3=O)ccc2c1COC2=O [Example 105] ?
T

====

Listed below: pIC50 values for each entry.
- test-target: UniProt P48048
- assay-method-text: Thallium Flux Assay (ROMK channel functional thallium flux assay)
- condition-parameters: HEK293 cells stably expressing hROMK (hKir1.1); FluxOR thallium flux, FLIPR-Tetra, 30 min compound incubation; read-out: ROMK TI IC50
pIC50 field: float, defined as -log10 of concentration (mol/L).

Known pIC50 results, listed for orientation:
Look up pIC50 of "Cc1c([C@@H](O)[C@@H](C)N2CCC3(CCN(c4ccc(=O)n(C)n4)C3=O)CC2)ccc2c1COC2=O" and report it.
7.25

Look up pIC50 of "Cc1cc(-n2cnnn2)ccc1[C@@H](O)CN1CCC2(CC1)CN(c1ccc(=O)n(C)n1)CCO2" and report it.
6.27

Look up pIC50 of "Cc1c([C@@H](O)CN2CCC3(CC2)CCN(c2cccnc2)C3=O)ccc2c1COC2=O" and report it.
6.42

Look up pIC50 of "Cc1nc(-n2cnnn2)ccc1[C@@H](O)CN1CCC2(CC1)CN(c1ccc(=O)n(C)n1)CCO2" and report it.
6.42

Next:
Look up pIC50 of "Cc1c([C@@H](O)CN2CCC3(CC2)OCCN(c2ccc(=O)n(C)n2)C3=O)ccc2c1COC2=O" and report it.
6.46

====

- test-target: hROMK (hKir1.1) (Homo sapiens)
- Construct: expressed in transfected cells
- Sequence (P48048 1-391): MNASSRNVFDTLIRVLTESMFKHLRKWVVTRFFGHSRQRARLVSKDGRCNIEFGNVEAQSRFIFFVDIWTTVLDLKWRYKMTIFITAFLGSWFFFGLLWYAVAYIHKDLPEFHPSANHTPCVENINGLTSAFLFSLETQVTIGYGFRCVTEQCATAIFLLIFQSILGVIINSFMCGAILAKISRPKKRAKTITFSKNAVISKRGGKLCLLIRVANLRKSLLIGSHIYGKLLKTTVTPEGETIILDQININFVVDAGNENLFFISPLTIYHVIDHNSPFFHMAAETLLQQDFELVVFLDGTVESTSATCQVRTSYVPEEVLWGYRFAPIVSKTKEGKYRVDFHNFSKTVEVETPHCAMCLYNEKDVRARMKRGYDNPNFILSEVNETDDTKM
- assay-method-text: Thallium Flux Assay (ROMK channel functional thallium flux assay)
- Format: cell-based
- condition-parameters: HEK293 cells stably expressing hROMK (hKir1.1); FluxOR thallium flux, FLIPR-Tetra, 30 min compound incubation; read-out: ROMK TI IC50
Listed below: IC50 values for each entry.
// note: answer is a bare numeric in nM

Known IC50 results, listed for orientation:
Look up IC50 of "Cc1cc2c(cc1[C@@H](O)CN1CCC3(CC1)CCN(c1ccns1)C3=O)COC2=O" and report it.
221

Look up IC50 of "Cc1c([C@@H](O)CN2CCC3(CC2)CCN(c2ccc(OC(F)(F)F)cc2)C3=O)ccc2c1COC2=O" and report it.
465

Look up IC50 of "Cc1c([C@@H](O)CN2CCC3(CC2)C[C@H](C)N(c2ccc(=O)n(C)n2)C3=O)ccc2c1COC2=O" and report it.
378

Please examine the following record next.
Look up IC50 of "Cc1c([C@@H](O)CN2CCC3(CC2)CCN(c2cnccn2)C3=O)ccc2c1COC2=O" and report it.
437

====

- test-target: hROMK (hKir1.1) (Homo sapiens, UniProt P48048)
- assay-method-text: Thallium Flux Assay (ROMK channel functional thallium flux assay)
- condition-parameters: HEK293 cells stably expressing hROMK (hKir1.1); FluxOR thallium flux, FLIPR-Tetra, 30 min compound incubation; read-out: ROMK TI IC50
pIC50: −log10 of the molar value.
Label scheme for pIC50: lower than 7 is n, 7 and above is y.

Some solved entries appear below for comparison.
Reported pIC50 reaches at least 7 for "COC(=O)c1csc(N2CCC3(CCN(C[C@H](O)c4ccc5c(c4C)COC5=O)CC3)CC2)n1" ?
n

Reported pIC50 reaches at least 7 for "Cc1c([C@@H](O)CN2CCC3(CC2)CC(=O)N(c2ccnc(Cl)n2)C3)ccc2c1COC2=O" ?
n

Reported pIC50 reaches at least 7 for "Cc1c([C@@H](O)CN2CCC3(CC2)CCN(c2ccnnc2)CC3)ccc2c1COC2=O" ?
n

Reported pIC50 reaches at least 7 for "Cc1c([C@@H](O)CN2CCC3(CC2)CCN(c2ccc(=O)n(C4CC4)n2)C3=O)ccc2c1COC2=O" ?
y

Reported pIC50 reaches at least 7 for "Cc1c([C@@H](O)CN2CCC3(CC2)CCN(c2nccnc2Cl)CC3)ccc2c1COC2=O" ?
n

Next:
Reported pIC50 reaches at least 7 for "Cc1c([C@@H](O)CN2CCC3(CC2)CCN(c2ccc(=O)n(C(F)F)c2)C3=O)ccc2c1COC2=O" ?
n

Reported pIC50 reaches at least 7 for "Cc1c([C@@H](O)CN2CCC3(CC2)CCN(c2ccc(=O)n(C)n2)CC3)ccc2c1COC2=O" ?
n

Reported pIC50 reaches at least 7 for "Cc1c([C@@H](O)CN2CCC3(CC2)CCN(c2ccc(=O)n(C)n2)C3=O)ccc2c1COC2=O" ?
y
